Measured values drawn from patent US11878975B2 for this set.

# testedOn: human TLR7 (Homo sapiens)
# assayOverview: TLR7 inhibition reporter assay (HEK-Blue cells, SEAP reporter, gardiquimod stimulation)
# details: HEK-Blue cells overexpressing human TLR7, SEAP reporter, gardiquimod 7.5 μM
pIC50: −log10 of the molar value.
Assign class by pIC50: not lower than 9 means satisfied; lower than 9 means not satisfied.

Examples from the recorded data:
                                   molecule                   testedon       category
0  Cc1cc(-c2[nH]c3ccc(C4CCC(N)CC4)cc3c2C(C)C)cn2ncnc12 (single isomer, unassigned) [Example 4]  human TLR7 (Homo sapiens)  not satisfied
1  Cc1cc(-c2[nH]c3ccc(C4CCC(N5CCOCC5)CC4)cc3c2C(C)C)cc(C)n1 (centres unmarked) [Example 498]  human TLR7 (Homo sapiens)  not satisfied
2  Cc1cc(-c2[nH]c3ccc(C4CN5CCC4CC5)cc3c2C(C)C)cn2ncnc12 (centres unmarked) [Example 365]  human TLR7 (Homo sapiens)      satisfied

Alright, here's another molecule for you.
Query: Is pIC50 at least 9? Consider Cc1cc(-c2[nH]c3ccc(C4CN5CCC4CC5)cc3c2C(C)C)cc(C)n1 (single isomer, unassigned) [Example 363]
Reply: not satisfied

====

Let's look at some compounds and their measured IC50.
# testedOn: human TLR9 (Homo sapiens, UniProt Q9NR96)
# Sequence (Q9NR96 26-1032): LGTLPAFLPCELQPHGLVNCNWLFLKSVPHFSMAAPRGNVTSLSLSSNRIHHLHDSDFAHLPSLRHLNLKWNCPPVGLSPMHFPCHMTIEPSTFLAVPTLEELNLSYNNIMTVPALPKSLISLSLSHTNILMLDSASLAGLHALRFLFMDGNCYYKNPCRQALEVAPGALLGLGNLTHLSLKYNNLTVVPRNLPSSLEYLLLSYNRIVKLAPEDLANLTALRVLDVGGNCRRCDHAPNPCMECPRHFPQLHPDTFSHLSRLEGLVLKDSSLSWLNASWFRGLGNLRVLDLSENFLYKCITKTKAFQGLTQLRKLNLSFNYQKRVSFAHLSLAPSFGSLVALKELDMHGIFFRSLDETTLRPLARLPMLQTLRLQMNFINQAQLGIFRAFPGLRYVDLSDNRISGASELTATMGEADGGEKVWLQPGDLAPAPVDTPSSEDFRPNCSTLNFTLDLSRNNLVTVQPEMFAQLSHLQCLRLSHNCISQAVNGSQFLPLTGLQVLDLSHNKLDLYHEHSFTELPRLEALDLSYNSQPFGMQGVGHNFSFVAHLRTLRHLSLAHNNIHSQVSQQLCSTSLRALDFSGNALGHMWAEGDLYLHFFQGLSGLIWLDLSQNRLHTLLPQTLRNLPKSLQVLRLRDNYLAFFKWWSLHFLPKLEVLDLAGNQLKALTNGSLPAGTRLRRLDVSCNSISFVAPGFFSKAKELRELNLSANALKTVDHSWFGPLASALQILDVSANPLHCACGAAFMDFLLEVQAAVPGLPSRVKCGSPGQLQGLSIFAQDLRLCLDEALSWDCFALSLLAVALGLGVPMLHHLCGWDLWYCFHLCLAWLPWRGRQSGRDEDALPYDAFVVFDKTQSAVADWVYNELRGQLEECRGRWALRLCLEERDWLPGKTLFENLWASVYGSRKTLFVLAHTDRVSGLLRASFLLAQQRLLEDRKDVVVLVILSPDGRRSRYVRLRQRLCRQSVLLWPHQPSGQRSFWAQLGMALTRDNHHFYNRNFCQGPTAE
# assayOverview: TLR9 inhibition reporter assay (HEK-Blue cells, SEAP reporter, ODN2006 stimulation)
# details: HEK-Blue cells overexpressing human TLR9, SEAP reporter, ODN2006 5 nM
The figure you give is taken to be in nM; do not add the unit.

In [3]: df
Out[3]:
                                   compound  property  unitname  resultnumber
0  COCCN1CCOC(c2ccc3[nH]c(-c4cc(C)nc(C)c4)c(C(C)C)c3c2)C1 (stereo not drawn) [Example 352]      IC50        nM          3700
1  Cc1cc(-c2[nH]c3ccc(C4CCCN(C(=O)C5CNC5)C4)cc3c2C(C)C)cc(C)n1 (stereo not drawn) [Example 215]      IC50        nM           677

Query: Give me measured IC50, please, for this compound: Cc1cc(-c2[nH]c3ccc(C4CCC(N5CCOCC5)CC4)cc3c2C(C)C)cc(C)n1 (stereo not drawn) [Example 54]
Reply: 618

====

# testedOn: UniProt:Q9NYK1
# assayOverview: TLR7 inhibition reporter assay (HEK-Blue cells, SEAP reporter, gardiquimod stimulation)
# details: HEK-Blue cells overexpressing human TLR7, SEAP reporter, gardiquimod 7.5 μM
property: IC50 (nM)
Kindly answer with a numeric value in nM, unit omitted.

>>> df
                                   molecule  resultnumber
0  Cc1c(-c2[nH]c3ccc(CC4CN(C5CCOCC5)C4)cc3c2C(C)C)cn(C)c(=O)c1C           115
1  COc1cc(-c2[nH]c3ccc(C4CC(NC5COC5)C4)cc3c2C(C)C)cn2ncnc12 (stereo not drawn)             1

// moving on: another record for IC50
Query: Using the record for COc1cc(-c2[nH]c3ccc(C4CC(N(C)CCS(C)(=O)=O)C4)cc3c2C(C)C)cn2ncnc12 (stereo not drawn) [Example 583] , state its measured IC50.
Reply: 0.99

====

# testedOn: human TLR8 (Homo sapiens, UniProt Q9NR97)
# Sequence (Q9NR97 27-1041): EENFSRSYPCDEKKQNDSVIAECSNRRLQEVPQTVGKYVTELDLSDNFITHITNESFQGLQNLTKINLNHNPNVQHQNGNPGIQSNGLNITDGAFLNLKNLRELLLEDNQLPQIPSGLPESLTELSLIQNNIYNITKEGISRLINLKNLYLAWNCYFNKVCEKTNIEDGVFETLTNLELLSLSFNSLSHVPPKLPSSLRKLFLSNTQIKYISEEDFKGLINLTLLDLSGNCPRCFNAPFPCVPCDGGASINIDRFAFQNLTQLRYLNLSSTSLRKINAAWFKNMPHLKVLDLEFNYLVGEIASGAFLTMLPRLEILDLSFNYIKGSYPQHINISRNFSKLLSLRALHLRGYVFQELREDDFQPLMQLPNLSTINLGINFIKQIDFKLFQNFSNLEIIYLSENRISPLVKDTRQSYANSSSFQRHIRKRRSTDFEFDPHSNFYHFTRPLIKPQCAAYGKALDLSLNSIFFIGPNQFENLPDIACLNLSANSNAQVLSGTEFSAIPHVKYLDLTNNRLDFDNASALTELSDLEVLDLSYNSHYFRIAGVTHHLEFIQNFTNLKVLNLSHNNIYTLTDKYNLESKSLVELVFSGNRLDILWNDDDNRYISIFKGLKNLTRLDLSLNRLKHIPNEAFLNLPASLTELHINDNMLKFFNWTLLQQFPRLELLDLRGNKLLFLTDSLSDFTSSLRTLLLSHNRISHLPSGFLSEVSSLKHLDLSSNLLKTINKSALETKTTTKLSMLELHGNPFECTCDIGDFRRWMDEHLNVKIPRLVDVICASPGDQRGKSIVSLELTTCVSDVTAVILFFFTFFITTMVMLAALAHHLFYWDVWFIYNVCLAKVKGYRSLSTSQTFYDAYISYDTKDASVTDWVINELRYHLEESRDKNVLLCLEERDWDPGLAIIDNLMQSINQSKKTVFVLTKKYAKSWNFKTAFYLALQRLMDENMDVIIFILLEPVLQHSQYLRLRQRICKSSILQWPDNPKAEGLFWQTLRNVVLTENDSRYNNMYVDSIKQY
# assayOverview: TLR8 inhibition reporter assay (HEK-Blue cells, SEAP reporter, R848 stimulation)
# details: HEK-Blue cells overexpressing human TLR8, SEAP reporter, R848 15.9 μM
property: IC50 (nM)
Answer in nM, number only, no unit symbol.

In [3]: df
Out[3]:
                                   compound                                  testedon  property  unitname  resultnumber
0  CNCC(=O)N1CCOC(c2ccc3[nH]c(-c4cc(C)c5ncnn5c4)c(C(C)C)c3c2)C1 (stereo not drawn) [Example 337]  human TLR8 (Homo sapiens, UniProt Q9NR97)      IC50        nM           7.1

Query: In one line, give reported IC50 of the entry Cc1cc(-c2[nH]c3ccc(C4CN(CCS(C)(=O)=O)CCO4)cc3c2C(C)C)cn2ncnc12 (stereo not drawn) [Example 344] .
Reply: 14

Query: Answer with the recorded IC50 of Cc1c(-c2[nH]c3ccc(C4CN(C(=O)CN(C)C)C4)cc3c2C(C)C)cn(C)c(=O)c1C only.
Reply: 9.5

Query: // fetch IC50 given entry COc1cc(-c2[nH]c3ccc(C4CCCN(CC(=O)N(C)C)C4)cc3c2C(C)C)cn2ncnc12 (stereo not drawn) [Example 222]
Reply: 9.2

Query: Determine from records and report IC50 for Cc1c(-c2[nH]c3ccc(C4CC(NC5COC5)C4)cc3c2C(C)C)cn2ncnc2c1C (stereo not drawn) [Example 576]
Reply: 7.4

Query: For the compound Cc1cc(-c2[nH]c3ccc(C4CCC(N(C)C5CC5)CC4)cc3c2C(C)C)cn2ncnc12 (single isomer, unassigned) [Example 8] , report IC50.
Reply: 16

====

Listing of entries alongside the reported log10 IC50.
# testedOn: UniProt Q9NR96
# assayOverview: TLR9 inhibition reporter assay (HEK-Blue cells, SEAP reporter, ODN2006 stimulation)
# details: HEK-Blue cells overexpressing human TLR9, SEAP reporter, ODN2006 5 nM
# Source text: TLR7/8/9 Inhibition Reporter Assays HEK-Blue™-cells (Invivogen) overexpressing human TLR7, TLR8 or TLR9 receptors were used for screening inhibitors of these receptors using an inducible SEAP (secreted embryonic alkaline phosphatase) reporter gene under the control of the IFN-β minimal promoter fused to five NF-κB and AP-1-binding sites. […]
Values are log10 of IC50 in µM.

Consider the worked cases shown below.
>>> df
                                   compound  resultnumber
0  COc1cc(-c2[nH]c3ccc(C4CCC(N5CC(F)C5)CC4)cc3c2C(C)C)cn2ncnc12 (stereo not drawn) [Example 21]          0.38
1  Cc1c(-c2[nH]c3ccc(C4CN(CC(C)(C)O)C4)cc3c2C(C)C)cn2ncnc2c1C          0.83
2  Cc1cc(-c2[nH]c3ccc(C4CCCN(C(=O)C5C(C)(C)C5(C)C)C4)cc3c2C(C)C)cc(C)n1 (stereo not drawn) [Example 198]          1.38
3  Cc1cc(-c2[nH]c3ccc(C4CN(CC(C)(C)O)CCO4)cc3c2C(C)C)cn2ncnc12 (single isomer, unassigned) [Example 356]          0.84
4  COCCC(=O)N1CCCC(c2ccc3[nH]c(-c4cc(C)nc(C)c4)c(C(C)C)c3c2)C1 (stereo not drawn) [Example 207]          1.64
5  Cc1cc(-c2[nH]c3ccc(C4CCCNC4)cc3c2C(C)C)cc(C)n1 (stereo not drawn) [Example 186]         -0.55
6  CCN(CC)CC(=O)NC1CCC(c2ccc3[nH]c(-c4cn5ncnc5c(C)c4C)c(C(C)C)c3c2)CC1 (stereo not drawn) [Example 125]          0.84
7  Cc1cc(-c2[nH]c3ccc(C4CN(C)C(C)(C)CO4)cc3c2C(C)C)cn2ncnc12 (single isomer, unassigned) [Example 375]          0.31
8  Cc1c(-c2[nH]c3ccc(C4CCC(N(C)C)CC4)cc3c2C(C)C)cn2ncnc2c1C (stereo not drawn) [Example 111]          0.61
9  COc1cc(-c2[nH]c3ccc(C4CCC(N5CC(F)C5)CC4)cc3c2C(C)C)cn2ncnc12 (stereo not drawn) [Example 23]          0.45

Now, please, on to the next compound.
Query: Return value of log10 IC50 for input Cc1c(-c2[nH]c3ccc(C4CN(CC(=O)N(C)C)C4)cc3c2C(C)C)cn2ncnc2c1C , no commentary.
Reply: 0.71

====

Reported values of IC50 for individual entries
# testedOn: UniProt:Q9NYK1
# Sequence (Q9NYK1 27-1049): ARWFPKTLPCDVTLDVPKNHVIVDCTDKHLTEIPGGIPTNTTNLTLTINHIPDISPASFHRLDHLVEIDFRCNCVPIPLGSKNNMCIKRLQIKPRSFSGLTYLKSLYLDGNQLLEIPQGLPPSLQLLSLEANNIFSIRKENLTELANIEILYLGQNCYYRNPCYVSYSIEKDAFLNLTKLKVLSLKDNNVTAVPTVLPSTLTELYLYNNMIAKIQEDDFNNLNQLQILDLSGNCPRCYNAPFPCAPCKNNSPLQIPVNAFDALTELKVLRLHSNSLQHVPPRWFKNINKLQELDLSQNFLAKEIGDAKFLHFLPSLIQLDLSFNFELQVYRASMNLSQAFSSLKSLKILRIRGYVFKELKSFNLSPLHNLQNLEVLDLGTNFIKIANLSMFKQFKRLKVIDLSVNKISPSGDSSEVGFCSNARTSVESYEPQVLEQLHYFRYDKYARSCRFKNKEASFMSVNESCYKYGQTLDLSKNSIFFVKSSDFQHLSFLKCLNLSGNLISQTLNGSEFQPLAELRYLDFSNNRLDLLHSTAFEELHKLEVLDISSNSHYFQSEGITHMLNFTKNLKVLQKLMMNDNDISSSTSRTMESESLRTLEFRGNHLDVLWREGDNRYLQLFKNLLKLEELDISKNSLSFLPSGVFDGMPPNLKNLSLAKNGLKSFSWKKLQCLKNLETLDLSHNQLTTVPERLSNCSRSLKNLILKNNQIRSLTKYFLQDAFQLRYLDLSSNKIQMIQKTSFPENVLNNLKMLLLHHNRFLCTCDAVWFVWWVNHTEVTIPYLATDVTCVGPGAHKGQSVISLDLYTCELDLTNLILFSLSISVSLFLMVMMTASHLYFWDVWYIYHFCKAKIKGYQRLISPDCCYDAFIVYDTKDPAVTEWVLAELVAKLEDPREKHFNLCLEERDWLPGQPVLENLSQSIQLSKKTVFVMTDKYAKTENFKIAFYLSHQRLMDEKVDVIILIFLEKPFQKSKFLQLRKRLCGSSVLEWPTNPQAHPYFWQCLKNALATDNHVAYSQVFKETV
# assayOverview: TLR7 inhibition reporter assay (HEK-Blue cells, SEAP reporter, gardiquimod stimulation)
# details: HEK-Blue cells overexpressing human TLR7, SEAP reporter, gardiquimod 7.5 μM
Express your answer as a number followed by its unit.

Worked cases, answers included:
>>> df
                                   compound   result
0  CNCCN1CCCC(c2ccc3[nH]c(-c4ccc(OC)c(OC)c4)c(C(C)C)c3c2)C1 (centres unmarked)   107 nM
1  CNC1CCC(c2ccc3[nH]c(-c4cn5ncnc5c(C)c4C)c(C(C)C)c3c2)CC1 (centres unmarked) [Example 91]  0.86 nM
2  Cc1cc(-c2[nH]c3ccc(C4CCCN(Cc5c[nH]c(C)n5)C4)cc3c2C(C)C)cc(C)n1 (centres unmarked) [Example 246]    10 nM
3  COc1cc(-c2[nH]c3ccc(C4CN(C(=O)CN(C)C)CCO4)cc3c2C(C)C)cn2ncnc12 (centres unmarked) [Example 334]  0.83 nM

Query: Provide measured IC50 value, entry: Cc1cc(-c2[nH]c3ccc(C4CN(CC(=O)N(C)C)C4)cc3c2C(C)C)cn2ncnc12
Reply: 4 nM
